Tested on: generation of reactive oxygen species in the murine kidney membrane
Experiment: Lucigenin-based assay of reactive oxygen species generation in isolated kidney membrane
Assay type: biochemical, rat (Rattus norvegicus)
Details: 37° C. for 10 minutes, luminescence, compound 40, 10, 2.5, 0.625, 0 μM, read-out: EC50 (inhibition of generation of reactive oxygen species)
parameterMeasured: EC50 (nM)
Just the number please, in nM, no unit attached.

stdin: State, in one line, measured EC50 of Oc1cc(-c2ccccc2I)nn1-c1ccccn1
stdout: 2500

stdin: Specify reported EC50 for the compound shown: CC(=O)Oc1cc(-c2ccc(Br)cc2)nn1-c1ccccn1
stdout: 1300

stdin: Quick one: give measured EC50 for Oc1cc(-c2ccc(-c3ccc4c(c3)OCO4)cc2)nn1-c1ccccn1
stdout: 500

stdin: Using the record for c1ccc(B(Oc2cc(-c3ccc(-c4ccccc4)cc3)nn2-c2ccccn2)c2ccccc2)cc1 , state its measured EC50.
stdout: 500
